meta.source: patent US10961229B2

- target-desc: hERG channels (Homo sapiens, UniProt Q12809)
- Sequence (Q12809 whole entry): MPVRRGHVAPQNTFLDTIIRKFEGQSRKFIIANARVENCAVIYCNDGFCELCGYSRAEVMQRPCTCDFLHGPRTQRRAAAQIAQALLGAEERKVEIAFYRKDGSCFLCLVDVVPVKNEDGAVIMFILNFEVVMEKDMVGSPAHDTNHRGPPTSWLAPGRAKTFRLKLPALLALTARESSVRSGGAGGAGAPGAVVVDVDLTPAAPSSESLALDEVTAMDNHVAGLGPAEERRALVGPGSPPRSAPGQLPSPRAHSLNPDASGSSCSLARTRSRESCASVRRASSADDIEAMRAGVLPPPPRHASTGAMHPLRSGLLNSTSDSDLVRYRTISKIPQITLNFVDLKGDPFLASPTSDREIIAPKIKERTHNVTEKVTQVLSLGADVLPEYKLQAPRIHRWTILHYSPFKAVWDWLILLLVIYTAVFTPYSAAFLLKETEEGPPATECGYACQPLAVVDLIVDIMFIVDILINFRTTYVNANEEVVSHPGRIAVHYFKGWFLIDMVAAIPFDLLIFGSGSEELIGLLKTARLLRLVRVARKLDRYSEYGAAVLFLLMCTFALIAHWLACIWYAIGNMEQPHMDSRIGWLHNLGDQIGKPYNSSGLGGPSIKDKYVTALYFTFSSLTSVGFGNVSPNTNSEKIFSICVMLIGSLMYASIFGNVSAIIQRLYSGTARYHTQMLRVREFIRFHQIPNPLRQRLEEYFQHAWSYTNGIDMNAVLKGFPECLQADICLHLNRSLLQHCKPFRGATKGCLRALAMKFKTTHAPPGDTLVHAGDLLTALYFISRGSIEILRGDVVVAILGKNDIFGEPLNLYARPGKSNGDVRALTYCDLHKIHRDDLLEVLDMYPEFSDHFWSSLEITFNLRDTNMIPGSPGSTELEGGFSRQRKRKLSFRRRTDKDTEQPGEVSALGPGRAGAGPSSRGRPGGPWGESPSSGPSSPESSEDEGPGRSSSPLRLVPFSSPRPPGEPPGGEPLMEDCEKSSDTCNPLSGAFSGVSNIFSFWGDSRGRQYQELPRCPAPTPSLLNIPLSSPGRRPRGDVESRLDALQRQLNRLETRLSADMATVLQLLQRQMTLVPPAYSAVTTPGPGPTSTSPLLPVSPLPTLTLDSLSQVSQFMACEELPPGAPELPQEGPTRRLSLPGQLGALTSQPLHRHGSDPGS
- experiment: hERG electrophysiology assay (patch clamp)
- condition-description: HEK 293 cells stably expressing hERG channels, tail current
readout: pIC50
The quantity pIC50 is defined as the negative base-10 logarithm of the molar concentration.

I have this compound here, Cc1ccc(N2CCC(N3CCN(c4ccc(O)cn4)CC3)C2=O)cc1F (single isomer, unassigned) [Example 14 P1] , and I need its recorded pIC50. 5.05

---

- experiment: Drug levels in blood plasma and homogenized brain tissue by mass spectroscopy
- Assay type: in vivo, mouse
- condition-description: CD-1, mouse, brain homogenate, intravenous; 3 mg/Kg i.v. dose, ex vivo occupancy study, mice; read-out: drug levels in the homogonized brain tissue
readout: concentration at 15 min

concentration at 15 min lookup needed for Cc1ccc(N2CCC(N3CCN(c4ccc(O)cn4)CC3)C2=O)cc1F (single isomer, unassigned) [Example 14 P1] , thanks. 1340 nM
